Test system: Con-NCI-H82 cell
Assay: CellTiter-Glo cell viability, Con-NCI-H82 cell (empty-vector control)
Type: cell-based, human
Settings: Homo sapiens, NCI-H82, NCI-H82 transfected with empty virus vector (control), intracellular ATP, read-out: inhibitory effect on Con-NCI-H82 (IC50)
pIC50: −log10 of the molar value.
experimental_readout: pIC50

COc1ccc2c(c1OC)C(C(Cl)(Cl)Cl)N1CCc3cc4c(cc3C1=C2CCCCCCBr)OCO4 (stereo not drawn) [AB35501] :: 6.06
COc1ccc2c(c1Br)CN1CCc3cc4c(cc3C1=C2)OCO4 [AB36460] :: 5.97

I. COc1ccc2c(c1OCCCBr)C(C)N1CCc3cc4c(cc3C1=C2)OCO4 (stereo not drawn) [AB31887]
II. [2H]C([2H])([2H])Oc1c(OC)ccc2c1C([2H])(C1CCCC1)N1CCc3cc4c(cc3C1=C2)OCO4 (stereo not drawn) [AB36509]
III. CCCC1=C2c3cc4c(cc3CCN2C(C(Cl)(Cl)Cl)c2c1ccc(OC)c2OC)OCO4 (stereo not drawn) [AB35492]
Task: List from greatest to least pIC50. Provide your answer as the labels ordered per the instruction.
Result: II, III, I

a. CCOc1c(OC)ccc2c1CN1CCc3cc4c(cc3C1=C2)OCO4 [AB35594]
b. COc1ccc2c(c1OC)C(C)N1CCc3cc4c(cc3C1=C2)OCCO4 (stereo not drawn) [AB31898]
c. COc1ccc2c(c1OC/C=C(\C)CCC=C(C)C)C(C1CCCC1)N1CCc3cc4c(cc3C1=C2)OCO4 (stereo not drawn) [AB35438]
d. COc1ccc2c(c1Cl)CN1CCc3cc4c(cc3C1=C2)OCO4 [AB36450]
Task: List the 4 entries from lowest pIC50 to highest pIC50 value. Provide your answer as the labels ordered per the instruction.
Result: b, d, a, c

P. COc1ccc2c(c1OC)C(C)N1CCc3cc4c(cc3C1=C2CCc1ccccc1)OCO4 (stereo not drawn) [AB35498]
Q. CCCCC1c2c(c(Br)cc(OC)c2OC)C=C2c3cc4c(cc3CCN21)OCO4 (stereo not drawn) [AB31873]
Task: Please choose the item with the lower pIC50 value from this pair: P and Q Lab note: record the label of whichever item you select.
Result: Q

A. COc1ccc2c(c1OC)C(C)N1CCc3cc4c(cc3C1=C2CCCc1ccccc1)OCCO4 (stereo not drawn) [AB35493]
B. COc1ccc2c(c1OCCCCl)C(C1CCC1)N1CCc3cc4c(cc3C1=C2)OCO4 (stereo not drawn) [AB35490]
Task: Rank A against B by their pIC50 values and give the higher one. Lab note: record the label of whichever item you select.
Result: A

1. CCCCCC1=C2c3cc4c(cc3CCN2C(C(Cl)(Cl)Cl)c2c1ccc(OC)c2OC)OCO4 (stereo not drawn) [AB35418]
2. [2H]C1c2c(ccc(OC)c2OC)C=C2c3cc4c(cc3CCN21)OCO4 (stereo not drawn) [AB36415]
Task: Please choose the item with the lower pIC50 value from this pair: 1 and 2 Lab note: record the label of whichever item you select.
Result: 2
(2: 6.06, 1: 6.28)

a. CCC(CC)COc1c(OC)ccc2c1C(C(Cl)(Cl)Cl)N1CCc3cc4c(cc3C1=C2)OCO4 (stereo not drawn) [AB35521]
b. COc1ccc2c(c1N1CCC(C)CC1)C(C(Cl)(Cl)Cl)N1CCc3cc4c(cc3C1=C2)OCO4 (stereo not drawn) [AB35453]
c. CCCC1c2c(ccc3c2OCO3)C=C2c3cc4c(cc3CCN21)OCO4 (stereo not drawn) [AB36416]
d. COc1ccc2c(c1OCCCN1CCCCC1)C(C)N1CCc3cc4c(cc3C1=C2)OCO4 (stereo not drawn) [AB35442]
e. COc1ccc2c(c1OC(=O)CC13CC4CC(CC(C4)C1)C3)C(C1CCCC1)N1CCc3cc4c(cc3C1=C2)OCO4 (stereo not drawn) [AB35459]
Task: List the 5 entries from lowest pIC50 to highest pIC50 value. Provide your answer as the labels ordered per the instruction.
Result: d, e, c, a, b
(d: 5.04, e: 5.30, c: 5.97, a: 6.21, b: 6.64)

1. COc1ccc2c(c1OC)C(C1CCCC1)N1CCc3cc4c(cc3C1=C2Cc1ccc(C(C)C)cc1)OCO4 (stereo not drawn) [AB35460]
2. COc1ccc2c(c1NCCc1ccccc1)C(C)N1CCc3cc4c(cc3C1=C2)OCO4 (stereo not drawn) [AB31895]
3. COc1ccc2c(c1OCCCCNC(=O)OC(C)(C)C)C(C(Cl)(Cl)Cl)N1CCc3cc4c(cc3C1=C2)OCO4 (stereo not drawn) [AB35423]
4. ClC(Cl)(Cl)C1c2c(ccc3c2OCO3)C(CCCc2ccccc2)=C2c3cc4c(cc3CCN21)OCO4 (stereo not drawn) [AB35428]
Task: List the 4 entries from lowest pIC50 to highest pIC50 value. Provide your answer as the labels ordered per the instruction.
Result: 4, 3, 2, 1

P. COc1ccc2c(c1OC)C(C(Cl)(Cl)Cl)N1CCc3cc4c(cc3C1=C2CCCc1ccccc1)OCCO4 (stereo not drawn) [AB35484]
Q. COc1ccc2c(c1OCCCCCl)C(C(Cl)(Cl)Cl)N1CCc3cc4c(cc3C1=C2)OCO4 (stereo not drawn) [AB35496]
R. COc1ccc2c(c1OCCCCc1ccccc1)C(C(Cl)(Cl)Cl)N1CCc3cc4c(cc3C1=C2)OCO4 (stereo not drawn) [AB35535]
Task: List the 3 entries from lowest pIC50 to highest pIC50 value. Provide your answer as the labels ordered per the instruction.
Result: Q, P, R
(Q: 5.53, P: 6.11, R: 6.66)
